# reported t1/2; entries follow
assay: Chemical stability assessed as hydrolysis half life in presence of 80% human plasma; type: ADME, cell-free
measurement name: t1/2 (h)

COc1ccc2cc([C@H](C)C(=O)OCc3ccc(OC(=O)OCC[Si](C)(C)C)cc3)ccc2c1    4.22
COc1ccc2c(c1)c(CC(=O)OCc1ccc(OC(=O)OCCC(C)(C)C)cc1)c(C)n2C(=O)c1ccc(Cl)cc1    7.8
COc1ccc2cc([C@H](C)C(=O)OCCC(C)(C)C)ccc2c1    0.633
COc1ccc2cc([C@H](C)C(=O)OCc3ccc(OC(=O)OCCC(C)(C)C)cc3)ccc2c1    2.25
CC(C)(C)CCOC(=O)Oc1ccc(COC(=O)Cc2ccccc2Nc2c(Cl)cccc2Cl)cc1    5.95
CC(C)(C)CCOC(=O)Cc1ccccc1Nc1c(Cl)cccc1Cl    1.85
COc1ccc2cc([C@H](C)C(=O)OCC[Si](C)(C)C)ccc2c1    1.05
CC(C)Cc1ccc(C(C)C(=O)OCc2ccc(OC(=O)OCCC(C)(C)C)cc2)cc1 (stereo not drawn)    3.4

This collection of values is drawn from ChEMBL document CHEMBL1157889.
